Tested on: brain
assayMethodText: NGS fold enrichment of synthetic library (passage 3) in C57Bl/6 mice, first cross-species screen
Type: in vivo
testParameters: synthetic library passage 3, intravenous, RNA NGS, brain of C57Bl/6 mice, relative to wild-type AAV9
recordedMetric: Fold enrichment over AAV9 in the brain of Mice (C57Bl/6) (fold)

residueCodes: GSSQSTGYQPNQQT
experimentalResult: 0.522

residueCodes: GNILHATSGQNQQT
experimentalResult: 1.159

residueCodes: GSAAMSVRGQNQQT
experimentalResult: 0.202

residueCodes: GSVHMQNAGQNQQT
experimentalResult: 1.004

residueCodes: GSGQNAGSFPNQQT
experimentalResult: 1.091

residueCodes: GSLVSVQTGQNQQT
experimentalResult: 0.903

residueCodes: GSGQNQYSQSSMQT
experimentalResult: 0.375

residueCodes: GWERSFVSGQNQQT
experimentalResult: 0.490

residueCodes: GSGQNQQASLAMRT
experimentalResult: 2.066

residueCodes: GSGQVGRLLQNQQT
experimentalResult: 0.773

residueCodes: GSGQNQQTVMTARA
experimentalResult: 0.995

residueCodes: GSPYMGATGQNQQT
experimentalResult: 0.918

residueCodes: GSVSTHSSGQNQQT
experimentalResult: 1.198

* * *

Fold enrichment over AAV9 in the brain of Mice (C57Bl/6) overview
Test system: brain
assayMethodText: NGS fold enrichment of synthetic library (passage 3) in C57Bl/6 mice, first cross-species screen
Format: in vivo
testParameters: synthetic library passage 3, intravenous, RNA NGS, brain of C57Bl/6 mice, relative to wild-type AAV9
recordedMetric: Fold enrichment over AAV9 in the brain of Mice (C57Bl/6) (fold)

residueCodes: GSGLRTMTTQNQQT
assayTarget: brain
experimentalResult: 0.838
//
residueCodes: GSGQNQQTNRGNPM
assayTarget: brain
experimentalResult: 1.349
//
residueCodes: GPLVNASSGQNQQT
assayTarget: brain
experimentalResult: 0.831
//
residueCodes: GSGQNQRGALATQT
assayTarget: brain
experimentalResult: 0.899
//
residueCodes: GSGLSHSHQQNQQT
assayTarget: brain
experimentalResult: 1.256
//
residueCodes: GSDQNQRLTSSMQT
assayTarget: brain
experimentalResult: 0.875
//
residueCodes: GSGQNQQTSGVLTL
assayTarget: brain
experimentalResult: 1.104
//
residueCodes: GSGQNQHSAPNSQT
assayTarget: brain
experimentalResult: 1.187
//
residueCodes: GHLTMHNSGQNHQT
assayTarget: brain
experimentalResult: 1.030
//
residueCodes: GVKGVGHSGQNQQT
assayTarget: brain
experimentalResult: 0.994
//
residueCodes: GATLQVHSGQNQQT
assayTarget: brain
experimentalResult: 0.623
//
residueCodes: GNIQWQGSGQNQQT
assayTarget: brain
experimentalResult: 1.182
//
residueCodes: GSGQFTNAGMNQQT
assayTarget: brain
experimentalResult: 0.565
//
residueCodes: GSGQMQSAGSNQQT
assayTarget: brain
experimentalResult: 1.034
//
residueCodes: GSAGISPSGQNQQT
assayTarget: brain
experimentalResult: 0.784
//
residueCodes: GSLSSHGVGQNQQT
assayTarget: brain
experimentalResult: 1.218
//
residueCodes: GSGHLFQSGQNQQT
assayTarget: brain
experimentalResult: 0.751
//
residueCodes: GSGLKWSTLQNQQT
assayTarget: brain
experimentalResult: 1.134
//
residueCodes: GSLGNLQRGQNQQT
assayTarget: brain
experimentalResult: 0.947
//
residueCodes: GSGQNQQSGRGDLT
assayTarget: brain
experimentalResult: 0.524
//
residueCodes: GSGKVTKQSQNQQT
assayTarget: brain
experimentalResult: 0.928
//
residueCodes: GGYHSQTSGQNQQT
assayTarget: brain
experimentalResult: 1.740
//
residueCodes: GSGTQIPSQQNQQT
assayTarget: brain
experimentalResult: 0.470
//
residueCodes: GSGQNQQTSTTPLP
assayTarget: brain
experimentalResult: 0.828
//
residueCodes: GSGQMASRESNQQT
assayTarget: brain
experimentalResult: 0.341
//
residueCodes: GSGQNQQVGSTVRT
assayTarget: brain
experimentalResult: 0.918
//
residueCodes: GSGQNQQLSRDAST
assayTarget: brain
experimentalResult: 1.877
//
residueCodes: GSGQNQYLRLELQT
assayTarget: brain
experimentalResult: 0.416
//
residueCodes: GSGQLSVPYDNQQT
assayTarget: brain
experimentalResult: 0.622
//
residueCodes: GSGQNQSQNHLQQT
assayTarget: brain
experimentalResult: 1.063
//
residueCodes: GSGDLVVSTQNQQT
assayTarget: brain
experimentalResult: 0.411
//
residueCodes: GRAPTNLSGQNQQT
assayTarget: brain
experimentalResult: 0.757
//
residueCodes: GSGQNRGISISQQT
assayTarget: brain
experimentalResult: 0.686
//
residueCodes: GLSNPMPSGQNQQT
assayTarget: brain
experimentalResult: 1.190
//
residueCodes: GSGIQSSYSQNQQT
assayTarget: brain
experimentalResult: 1.032
//
residueCodes: GSGQLRSLSTNQQT
assayTarget: brain
experimentalResult: 1.310
//
residueCodes: GVAFIGSSGQNQQT
assayTarget: brain
experimentalResult: 0.744
//
residueCodes: GALVSPISGQNQQT
assayTarget: brain
experimentalResult: 0.640
//
residueCodes: GSRNGHTVGRNQQT
assayTarget: brain
experimentalResult: 1.162
//
residueCodes: GMGRHSASGQNQQT
assayTarget: brain
experimentalResult: 0.470
//
residueCodes: GSGQNERHLVLQQT
assayTarget: brain
experimentalResult: 0.416
//
residueCodes: GSGQSHSLATNQQT
assayTarget: brain
experimentalResult: 1.021
//
residueCodes: GSGYKDTYGQNQQT
assayTarget: brain
experimentalResult: 0.717
//
residueCodes: GSGHMTYREKNQQT
assayTarget: brain
experimentalResult: 1.257
//
residueCodes: GSIAHVGTGQNQQT
assayTarget: brain
experimentalResult: 0.837
//
residueCodes: GSGTHNSAIQNQQT
assayTarget: brain
experimentalResult: 0.762
//
residueCodes: GSKGVPTPGQNQQT
assayTarget: brain
experimentalResult: 1.452
//
residueCodes: GDAGVRSSGQNQQT
assayTarget: brain
experimentalResult: 1.033
//
residueCodes: GSLLQAHSGQNQQT
assayTarget: brain
experimentalResult: 0.575
//
residueCodes: GSGDLRISPQNQQT
assayTarget: brain
experimentalResult: 0.620
//
residueCodes: GSGQRNPLLLNQQT
assayTarget: brain
experimentalResult: 0.662
//
residueCodes: GMRTYHLSGQNQQT
assayTarget: brain
experimentalResult: 2.033
//
residueCodes: GSITLIPSGQNQQT
assayTarget: brain
experimentalResult: 0.326
//
residueCodes: GSRDGHTVGQNQQT
assayTarget: brain
experimentalResult: 0.495
//
residueCodes: GSGQNQQSKQQVLT
assayTarget: brain
experimentalResult: 1.428
//
residueCodes: GYEVLGSSGQNQQT
assayTarget: brain
experimentalResult: 2.459
//
residueCodes: GMRMEYQSGQNQQT
assayTarget: brain
experimentalResult: 0.644
//
residueCodes: GSGQNRAQSRFQQT
assayTarget: brain
experimentalResult: 0.619
//
residueCodes: GSGQNQKILTLDQT
assayTarget: brain
experimentalResult: 0.291
//
residueCodes: GSGHSIRTDQNQQT
assayTarget: brain
experimentalResult: 0.229
//
residueCodes: GSGQNRKPASFAQT
assayTarget: brain
experimentalResult: 0.892
//
residueCodes: GIILGASSGQNQQT
assayTarget: brain
experimentalResult: 1.378
//
residueCodes: GDSSLRHSGQNQQT
assayTarget: brain
experimentalResult: 0.662
//
residueCodes: GSGGTSVHQQNQQT
assayTarget: brain
experimentalResult: 0.585
//
residueCodes: GSGTVHAATQNQQT
assayTarget: brain
experimentalResult: 0.563
//
residueCodes: GSGQNQQTSMSNAT
assayTarget: brain
experimentalResult: 1.605
//
residueCodes: GSGQNQQPHLKSLT
assayTarget: brain
experimentalResult: 1.096
//
residueCodes: GGRNGHTVGQNQQT
assayTarget: brain
experimentalResult: 1.105
//
residueCodes: GSGQNQQTRLVDLT
assayTarget: brain
experimentalResult: 1.268
//
residueCodes: GRHLVTASGQNQQT
assayTarget: brain
experimentalResult: 0.648
//
residueCodes: GSGQNQQPLDTSRT
assayTarget: brain
experimentalResult: 0.491
//
residueCodes: GSGQNQQTMIANIR
assayTarget: brain
experimentalResult: 0.379
//
residueCodes: GSGYASHVQQNQQT
assayTarget: brain
experimentalResult: 1.157
//
residueCodes: GSGMSPSTLQNQQT
assayTarget: brain
experimentalResult: 0.318
//
residueCodes: GSGYTSLFLQNQQT
assayTarget: brain
experimentalResult: 0.490
//
residueCodes: GSGPQSHTGQNQQT
assayTarget: brain
experimentalResult: 0.958
//
residueCodes: GSGQNHRPSVLQQT
assayTarget: brain
experimentalResult: 0.433
